tgt: KRAS WT-cRAF (Homo sapiens, UniProt P01116+P62937)
Sequence (P01116 1-188 isoform P01116-2): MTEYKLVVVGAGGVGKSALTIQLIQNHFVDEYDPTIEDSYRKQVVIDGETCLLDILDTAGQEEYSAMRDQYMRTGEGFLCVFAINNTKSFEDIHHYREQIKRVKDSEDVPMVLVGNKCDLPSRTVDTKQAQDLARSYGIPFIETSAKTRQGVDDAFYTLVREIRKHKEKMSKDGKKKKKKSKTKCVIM
Sequence (P62937 whole entry): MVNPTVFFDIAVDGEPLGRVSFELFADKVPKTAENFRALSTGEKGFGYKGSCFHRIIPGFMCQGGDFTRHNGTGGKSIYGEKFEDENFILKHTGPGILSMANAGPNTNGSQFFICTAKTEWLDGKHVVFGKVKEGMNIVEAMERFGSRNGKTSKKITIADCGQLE
test.protocol: Assay for binding of KRAS to cRAF (HTRF, with Cyclophilin A), KRAS WT
measurement.context: KRAS WT-cRAF binding assay(nM), GPPNP-KRAS WT, IC50 values
reported.property: IC50 (nM)

Field: example entries. Status: answers known.
Entry under test: CCn1c(-c2cc(C#CCN3CCN(C(=O)CN)CC3)cnc2C(C)OC)c2c3cc(ccc31)-c1csc(n1)CC(NC(=O)C1C3COCC31)C(=O)N1CCCC(N1)C(=O)OCC(C)(C)C2 (atropisomer, axis not shown; (Ra)) [Compound Z47] . Its IC50 was 34.4

Entry under test: COCCn1c(-c2cc(C#CCN3CCN(C(=O)CO)CC3)c[n+]([O-])c2C(C)OC)c2c3cc(ccc31)-c1csc(n1)CC(NC(=O)C1C3COCC31)C(=O)N1CCCC(N1)C(=O)OCC(C)(C)C2 (atropisomer, axis not shown; (Ra)) [Compound Z38-1] . Its IC50 was 69.6

Entry under test: COCCn1c(-c2cc(C#CCN3CCN(C(=O)CO)CC3)cnc2C(C)OC)c2c3cc(ccc31)-c1csc(n1)CC(NC(=O)C1C3COCC31)C(=O)N1CCCC(N1)C(=O)OCC(C)(C)C2 (atropisomer, axis not shown; (Ra)) [Compound Z31-1] . Its IC50 was 75

A = COCCn1c(-c2cc(C#CCN3CCC(C#N)(CO)CC3)cnc2C(C)OC)c2c3cc(ccc31)-c1csc(n1)CC(NC(=O)C1C(C)C1C)C(=O)N1CCCC(N1)C(=O)OCC(C)(C)C2 (centres unmarked) [Compound Z29]
B = CCn1c(-c2cc(C#CCN3CCC(C#N)CC3)cnc2C(C)OC)c2c3cc(ccc31)-c1csc(n1)CC(NC(=O)C1C3COCC31)C(=O)N1CCCC(N1)C(=O)OCC(C)(C)C2 (atropisomer, axis not shown; (Ra)) [Compound Z56]
### Prompt Decide: A or B , by lowest recorded IC50. Pick one; state its label.
### Response B

* * *

Test system: AsPC-1 p-ERK
test.protocol: Cell p-ERK assay (HTRF), AsPC-1 cells
Assay type: cell-based, human
measurement.context: Homo sapiens, ASPC1, 3 h, read-out: AsPC-1 p-ERK IC50(nM)
reported.property: IC50 (nM)

Field: example entries. Status: answers known.
Entry under test: CCn1c(-c2cc(C#CCN3CCC(N)(C#N)CC3)cnc2[C@H](C)OC)c2c3cc(ccc31)-c1csc(n1)C[C@H](NC(=O)[C@H]1[C@@H]3COC[C@@H]31)C(=O)N1CCC[C@H](N1)C(=O)OCC(C)(C)C2 (atropisomer, axis not shown; (Ra)) . Its IC50 was 0.27

Entry under test: CCn1c(-c2cc(C#CCN3CCS(=O)(=O)CC3)cnc2[C@H](C)OC)c2c3cc(ccc31)-c1csc(n1)C[C@H](NC(=O)[C@@H](NC)C(C)C)C(=O)N1CCC[C@H](N1)C(=O)OCC(C)(C)C2 (atropisomer, axis not shown) . Its IC50 was 0.52

P = CCn1c(-c2cc(C#CCN3CCCN(C(=O)CO)CC3)cnc2[C@H](C)OC)c2c3cc(ccc31)-c1csc(n1)C[C@H](NC(=O)[C@H]1[C@@H]3COC[C@@H]31)C(=O)N1CCC[C@H](N1)C(=O)OCC(C)(C)C2 (atropisomer, axis not shown; (Ra))
Q = CCn1c(-c2cc(C#CCN3CCS(=O)(=O)CC3)cnc2[C@H](C)OC)c2c3cc(ccc31)-c1csc(n1)C[C@H](NC(=O)[C@@H](N)C1CCCC1)C(=O)N1CCC[C@H](N1)C(=O)OCC(C)(C)C2 (atropisomer, axis not shown; (Ra))
### Prompt Decide: P or Q , by lowest recorded IC50. Pick one; state its label.
### Response P
(P: 0.24 nM, Q: 0.45 nM)
